Kindly supply the reported IC50 values for the records listed here.
Assay: Inhibition of recombinant HIV1 integrase strand transfer activity
One number for each entry, in nM.

// below: answered compounds
CC(=O)N(C)C1CCCCn2c1nc(C(=O)NCc1ccc(F)cc1)c(O)c2=O (racemic) = 8
CN(C)S(=O)(=O)N(C)[C@@H]1CCCn2c1nc(C(=O)NCc1ccc(F)cc1)c(O)c2=O = 7
CN(C(=O)CS(C)(=O)=O)C1CCCn2c1nc(C(=O)NCc1ccc(F)cc1)c(O)c2=O (racemic) = 6
O=C(NCc1ccc(F)cc1)c1nc2n(c(=O)c1O)CCCC2 = 5
O=C(NCc1ccc(F)cc1)c1nc2n(c(=O)c1O)CCCC2N1CCCC1 (racemic) = 63
CN(Cc1ccccc1)C1CCCCn2c1nc(C(=O)NCc1ccc(F)cc1)c(O)c2=O (racemic) = 62

Provide reported IC50 for each item, in the same order as listed.
1. CN(C1CCCn2c1nc(C(=O)NCc1ccc(F)cc1)c(O)c2=O)S(C)(=O)=O (racemic)
2. CN(C)C1CCCn2c1nc(C(=O)NCc1ccc(F)cc1)c(O)c2=O (racemic)
3. CN(C)C(=O)C(=O)N(C)[C@H]1CCCn2c1nc(C(=O)NCc1ccc(F)cc1)c(O)c2=O
4. CS(=O)(=O)CC(=O)NC1CCCn2c1nc(C(=O)NCc1ccc(F)cc1)c(O)c2=O (racemic)

Result:
[12, 69, 12, 7]

Measured IC50, CN(C(=O)CS(C)(=O)=O)C1CCCCn2c1nc(C(=O)NCc1ccc(F)cc1)c(O)c2=O (racemic) : 17

Provenance of the data: ChEMBL document CHEMBL1143246
